Molecular target: VEGFR-2 (Homo sapiens)
Sequence (P35968 20-1356): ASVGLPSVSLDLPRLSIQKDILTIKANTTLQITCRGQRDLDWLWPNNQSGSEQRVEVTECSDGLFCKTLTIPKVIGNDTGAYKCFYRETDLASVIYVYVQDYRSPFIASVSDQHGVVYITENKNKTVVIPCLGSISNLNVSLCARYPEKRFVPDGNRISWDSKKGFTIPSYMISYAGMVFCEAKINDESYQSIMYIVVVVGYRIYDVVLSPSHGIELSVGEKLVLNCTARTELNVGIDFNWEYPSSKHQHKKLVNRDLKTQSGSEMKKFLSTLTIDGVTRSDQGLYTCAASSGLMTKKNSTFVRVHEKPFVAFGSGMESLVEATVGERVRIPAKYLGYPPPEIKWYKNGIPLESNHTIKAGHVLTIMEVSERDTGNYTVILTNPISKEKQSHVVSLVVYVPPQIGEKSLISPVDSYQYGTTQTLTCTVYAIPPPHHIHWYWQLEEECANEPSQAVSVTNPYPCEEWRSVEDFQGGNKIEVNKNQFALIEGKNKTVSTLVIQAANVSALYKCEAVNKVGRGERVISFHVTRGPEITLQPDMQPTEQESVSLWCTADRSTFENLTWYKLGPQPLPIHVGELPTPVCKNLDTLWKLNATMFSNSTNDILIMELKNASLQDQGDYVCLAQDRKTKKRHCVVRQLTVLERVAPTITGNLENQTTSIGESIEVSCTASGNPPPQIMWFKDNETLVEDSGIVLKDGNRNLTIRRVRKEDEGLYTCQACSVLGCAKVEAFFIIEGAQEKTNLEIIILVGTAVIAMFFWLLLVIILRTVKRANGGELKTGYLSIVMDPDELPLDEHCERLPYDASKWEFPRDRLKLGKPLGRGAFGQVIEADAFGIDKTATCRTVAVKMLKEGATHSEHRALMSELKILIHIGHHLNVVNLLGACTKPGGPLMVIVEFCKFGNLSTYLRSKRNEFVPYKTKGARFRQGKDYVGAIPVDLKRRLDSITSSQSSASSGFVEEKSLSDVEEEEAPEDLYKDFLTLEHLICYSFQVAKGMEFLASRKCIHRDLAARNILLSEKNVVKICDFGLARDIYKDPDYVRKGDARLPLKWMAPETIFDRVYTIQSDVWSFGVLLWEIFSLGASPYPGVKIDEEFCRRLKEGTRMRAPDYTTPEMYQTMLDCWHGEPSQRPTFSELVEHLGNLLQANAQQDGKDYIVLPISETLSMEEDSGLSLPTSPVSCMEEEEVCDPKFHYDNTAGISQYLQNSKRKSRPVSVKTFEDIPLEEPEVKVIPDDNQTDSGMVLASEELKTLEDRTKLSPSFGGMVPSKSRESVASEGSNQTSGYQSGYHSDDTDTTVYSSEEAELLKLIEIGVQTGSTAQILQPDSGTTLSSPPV
Assay: In vitro kinase assay ([γ-33P]-ATP)
Assay type: biochemical
Settings: ATP at apparent Km of the kinase
readout: IC50

Incoming: Can you share its IC50? I mean this compound: Cn1nc(NC(=O)COc2ccc(-c3cnn4cccnc34)cc2)cc1C(F)(F)F
Outgoing: < 500 nM

Incoming: Looking for the measured IC50 of Cn1nc(NC(=O)CNc2ccc(-c3cnc4cnccn34)c(F)c2)cc1C(F)(F)F , can you help?
Outgoing: < 500 nM

Incoming: // query IC50 value for entry O=C(CNc1ccc(-c2cnc3cnccn23)cc1)Nc1cc(C(F)(F)F)c(Cl)cn1
Outgoing: < 500 nM

Incoming: Bench note: what IC50 did CC(Oc1ccc(-c2cnc3cnccn23)cn1)C(=O)Nc1cc(C(F)(F)F)c(Cl)cn1 (stereo not shown) show?
Outgoing: 500 to 5000 nM
